biological target: peripheral-type benzodiazepine receptor (PBR) (Homo sapiens, UniProt P30536); construct: Cell homogenates (50 μg protein) were incubated with 0.5-50 nM [^3H]; PK 11195; endogenous in cells; host or cells: HL-60 cell homogenate; test: Radioligand binding assay, inhibition of [^3H]PK 11195 binding to HL-60 homogenates
Sequence (P30536 whole entry): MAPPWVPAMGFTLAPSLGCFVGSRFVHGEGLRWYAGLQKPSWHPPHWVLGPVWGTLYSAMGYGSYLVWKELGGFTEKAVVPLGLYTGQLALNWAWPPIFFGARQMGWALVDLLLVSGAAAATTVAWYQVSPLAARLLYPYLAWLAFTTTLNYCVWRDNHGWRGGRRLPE
value type: Ki (nM)
Answer with a number only, understood to be in nM.

Kindly note the recorded Ki for "CC(=O)OC1=C(c2ccccc2)Oc2cc3ccccc3cc2-n2cccc21" , which is 6
